system-name: α2B Human Adrenergic Receptor (Homo sapiens)
Construct: expressed in transfected cells; host or cells: Y-1 cells
Sequence (P18089 whole entry): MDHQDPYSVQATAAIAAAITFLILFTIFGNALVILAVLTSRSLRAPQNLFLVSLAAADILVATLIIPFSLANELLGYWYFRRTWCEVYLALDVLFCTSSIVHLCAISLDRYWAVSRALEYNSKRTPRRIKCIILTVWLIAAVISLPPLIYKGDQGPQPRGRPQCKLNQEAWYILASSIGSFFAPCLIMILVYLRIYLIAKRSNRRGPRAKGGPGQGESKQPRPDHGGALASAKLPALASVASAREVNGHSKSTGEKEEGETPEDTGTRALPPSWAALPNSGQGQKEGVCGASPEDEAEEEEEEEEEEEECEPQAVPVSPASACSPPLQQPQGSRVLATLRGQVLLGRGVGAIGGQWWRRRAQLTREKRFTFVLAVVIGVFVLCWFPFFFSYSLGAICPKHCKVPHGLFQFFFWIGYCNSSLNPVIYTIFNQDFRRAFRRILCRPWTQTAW
Type: cell-based
stated-conditions: inhibition of forskolin-stimulated cAMP; NA: Not Active; read-out: pEC50 Alpha-2 B (converted)
Description: Binding and functional assays were performed using stably transfected human alpha adrenergic receptors. […] The agonist activity (expressed as pEC50) was measured as a function of the ability to inhibit the forskolin-stimulated synthesis of cyclic adenosine monophosphate (cAMP). […] The assessment of cAMP formation is determined by radioimmunoassay (cAMP radioimmunoassay kit; Advanced Magnetics, Cambridge, Mass.). […]
endpoint-name: EC50 (nM)
Number only, in nM; omit the unit.

Cc1c(N=C2NCCN2)ccc2[nH]cnc12 [Example 4]
9.77
COc1ccc(Cn2cnc3c(Br)c(NC4=NCCN4)ccc32)cc1 [Example 36]
282
Clc1c(NC2=NCCN2)ccc2nc[nH]c12 [Example 3]
12.6
CCCCc1cc(NC2=NCCN2)cc2[nH]cnc12 [Example 56]
219
Brc1c(NC2=NCCN2)ccc2nc[nH]c12 [Example 2]
18.6

Below: the item to evaluate.
**Query** Entry Ic1cc(NC2=NCCN2)cc2[nH]cnc12 [Example 54] : reported EC50 = ?
**Result** 138

---

system-name: α1A Human Adrenergic Receptor (Homo sapiens, UniProt P25100)
Construct: expressed in transfected cells; host or cells: LM(tk-) cells
Sequence (P25100 1-572): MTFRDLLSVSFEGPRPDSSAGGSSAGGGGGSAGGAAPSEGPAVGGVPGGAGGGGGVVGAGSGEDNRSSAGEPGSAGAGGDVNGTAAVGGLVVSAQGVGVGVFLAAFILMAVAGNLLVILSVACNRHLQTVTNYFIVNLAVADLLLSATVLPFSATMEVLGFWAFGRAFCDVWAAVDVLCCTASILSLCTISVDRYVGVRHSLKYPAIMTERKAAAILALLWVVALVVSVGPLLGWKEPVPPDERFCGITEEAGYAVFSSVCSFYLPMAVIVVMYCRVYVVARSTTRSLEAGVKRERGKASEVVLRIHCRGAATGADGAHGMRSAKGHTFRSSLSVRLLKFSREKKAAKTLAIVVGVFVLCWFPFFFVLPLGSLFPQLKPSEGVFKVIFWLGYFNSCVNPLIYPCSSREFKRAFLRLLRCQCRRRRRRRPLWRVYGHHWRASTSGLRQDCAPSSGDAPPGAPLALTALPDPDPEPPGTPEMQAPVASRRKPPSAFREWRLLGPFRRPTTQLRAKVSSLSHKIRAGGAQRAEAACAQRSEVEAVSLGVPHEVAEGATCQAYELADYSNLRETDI
test-protocol: Equilibrium competition binding, [3H] prazosin, membranes of transfected LM(tk-) cells
stated-conditions: cloned human receptor; [3H] prazosin; read-out: pKi Alpha-1 A (converted)
endpoint-name: Ki (nM)
Just the number please, in nM, no unit attached.

Take a look at these entries with their results.
Brc1c(NC2=NCCN2)ccc2c1ncn2Cc1ccccc1
1820
Cc1c(N=C2NCCN2)ccc2[nH]cnc12
603
Brc1c(NC2=NCCN2)ccc2c1ncn2C1CCCC1
8910
Clc1cccc(Cl)c1N=C1NCCN1 [Clonidine, reference compound]
513
NCCn1cnc2c(Br)c(NC3=NCCN3)ccc21
9330

**Query** Return reported Ki; argument: `c1cc2c(cc1NC1=NCCN1)ncn2CC1CCCCC1`
**Result** 912

**Query** What value of Ki has been recorded for this entry: `Brc1c(NC2=NCCN2)ccc2nc(C(c3ccccc3)c3ccccc3)[nH]c12`
**Result** 1230

---

system-name: α1B Human Adrenergic Receptor (Homo sapiens, UniProt P35368)
Construct: The entire coding region of α1B(1563 bp); expressed in transfected cells; host or cells: LM(tk-) cells
Sequence (P35368 whole entry): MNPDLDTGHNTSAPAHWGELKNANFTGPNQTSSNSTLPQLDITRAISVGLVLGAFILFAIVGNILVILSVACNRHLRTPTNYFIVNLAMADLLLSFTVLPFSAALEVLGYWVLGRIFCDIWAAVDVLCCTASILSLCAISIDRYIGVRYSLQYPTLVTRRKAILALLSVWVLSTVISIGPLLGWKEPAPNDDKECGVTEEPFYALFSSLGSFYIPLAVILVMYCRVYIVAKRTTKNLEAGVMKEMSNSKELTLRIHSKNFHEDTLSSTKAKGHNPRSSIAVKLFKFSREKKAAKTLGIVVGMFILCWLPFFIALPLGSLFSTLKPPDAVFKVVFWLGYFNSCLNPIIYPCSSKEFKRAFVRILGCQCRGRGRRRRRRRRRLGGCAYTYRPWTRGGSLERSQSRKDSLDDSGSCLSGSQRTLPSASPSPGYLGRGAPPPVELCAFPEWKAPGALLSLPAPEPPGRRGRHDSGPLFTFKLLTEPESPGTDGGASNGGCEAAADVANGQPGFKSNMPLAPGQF
test-protocol: Equilibrium competition binding, [3H] prazosin, membranes of transfected LM(tk-) cells
stated-conditions: cloned human receptor; [3H] prazosin; read-out: pKi Alpha-1 B (converted)
endpoint-name: log10(Ki) (log10 of the value in µM)
// do not treat as linear: log10 of Ki, unit µM

Reference set (4 entries):
c1cc2c(cc1NC1=NCCN1)ncn2CC1CCCCC1
1.32
Brc1cc2nc[nH]c2c(Br)c1NC1=NCCN1
-0.78
Brc1c(NC2=NCCN2)ccc2nc(C(c3ccccc3)c3ccccc3)[nH]c12
-1.31
CCCCc1c(NC2=NCCN2)ccc2nc[nH]c12
0.42

**Query** Give its log10(Ki) value. Item: `CCc1nc2ccc(NC3=NCCN3)c(Br)c2[nH]1`
**Result** 0.84

**Query** Quick one: log10(Ki) of `FC(F)(F)c1nc2ccc(NC3=NCCN3)c(Br)c2[nH]1` ?
**Result** 1.45

---

The entries below come with measured EC50 values attached.
system-name: α2B Human Adrenergic Receptor (Homo sapiens)
Construct: expressed in transfected cells; host or cells: Y-1 cells
Format: cell-based
// return numeric value only (unit: µM, not printed)

# count of solved cases: 3
Brc1c(NC2=NCCN2)ccc2nc(C3CC3)[nH]c12
0.115
c1nc2ccc(NC3=NCCN3)cc2[nH]1
0.0447
CCc1c(NC2=NCCN2)ccc2nc[nH]c12
0.0224

**Query** Which measured EC50 value corresponds to `Clc1cc(NC2=NCCN2)cc2[nH]cnc12` ?
**Result** 0.0182

**Query** Entry `CC(C)(C)c1nc2ccc(NC3=NCCN3)c(Br)c2[nH]1` : reported EC50 = ?
**Result** 0.851

---

Listed here: items and their measured Ki.
system-name: α1C Human Adrenergic Receptor (Homo sapiens, UniProt P35348)
Construct: expressed in transfected cells; host or cells: LM(tk-) cells
Sequence (P35348 whole entry): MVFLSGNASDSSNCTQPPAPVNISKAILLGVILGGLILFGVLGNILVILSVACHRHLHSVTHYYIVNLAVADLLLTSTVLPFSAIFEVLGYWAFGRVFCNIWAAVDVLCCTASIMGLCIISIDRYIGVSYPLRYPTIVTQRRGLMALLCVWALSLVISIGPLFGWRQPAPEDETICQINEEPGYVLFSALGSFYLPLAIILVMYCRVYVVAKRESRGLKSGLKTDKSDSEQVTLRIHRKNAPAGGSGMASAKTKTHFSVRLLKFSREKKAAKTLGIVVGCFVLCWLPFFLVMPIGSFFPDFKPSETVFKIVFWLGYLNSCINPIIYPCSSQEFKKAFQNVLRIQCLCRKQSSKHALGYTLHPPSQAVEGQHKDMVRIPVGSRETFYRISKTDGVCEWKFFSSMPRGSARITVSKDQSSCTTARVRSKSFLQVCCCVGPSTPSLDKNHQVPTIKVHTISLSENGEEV
test-protocol: Equilibrium competition binding, [3H] prazosin, membranes of transfected LM(tk-) cells
stated-conditions: cloned human receptor; [3H] prazosin; read-out: pKi Alpha-1 C (converted)
Expressed in µM, but write only the number.

The examples below pair each entry with its known result.
CCCCc1c(NC2=NCCN2)ccc2nc[nH]c12
2
Clc1c(NC2=NCCN2)ccc2nc[nH]c12
1.91
CCCn1cnc2ccc(NC3=NCCN3)cc21
4.9
Ic1c(NC2=NCCN2)ccc2nc[nH]c12
2.24
CCc1nc2ccc(NC3=NCCN3)c(Br)c2[nH]1
2.14
Brc1cc2nc[nH]c2c(Br)c1NC1=NCCN1
0.776
CCCn1cnc2ccc(NC3=NCCN3)c(Br)c21
0.417
NCCn1cnc2c(Br)c(NC3=NCCN3)ccc21
9.12
Cc1nc2ccc(NC3=NCCN3)c(Br)c2[nH]1
8.13
CC(C)Cn1cnc2ccc(NC3=NCCN3)c(Br)c21
0.251

**Query** Entry `c1cc2c(cc1NC1=NCCN1)ncn2C1CCCC1` , system α1C Human Adrenergic Receptor (Homo sapiens, UniProt P35348): what Ki was measured?
**Result** 9.77

**Query** Missing value: Ki, α1C Human Adrenergic Receptor (Homo sapiens, UniProt P35348), entry `CC(C)Cn1cnc2cc(NC3=NCCN3)ccc21` . Fill in?
**Result** 1.86

**Query** Param readout= Ki; system= α1C Human Adrenergic Receptor (Homo sapiens, UniProt P35348); entry= `c1cc2c(cc1NC1=NCCN1)ncn2CC1CCCCC1` ; returns value.
**Result** 1.41

---

system-name: α1A Human Adrenergic Receptor (Homo sapiens)
Construct: expressed in transfected cells; host or cells: LM(tk-) cells
Sequence (P25100 1-572): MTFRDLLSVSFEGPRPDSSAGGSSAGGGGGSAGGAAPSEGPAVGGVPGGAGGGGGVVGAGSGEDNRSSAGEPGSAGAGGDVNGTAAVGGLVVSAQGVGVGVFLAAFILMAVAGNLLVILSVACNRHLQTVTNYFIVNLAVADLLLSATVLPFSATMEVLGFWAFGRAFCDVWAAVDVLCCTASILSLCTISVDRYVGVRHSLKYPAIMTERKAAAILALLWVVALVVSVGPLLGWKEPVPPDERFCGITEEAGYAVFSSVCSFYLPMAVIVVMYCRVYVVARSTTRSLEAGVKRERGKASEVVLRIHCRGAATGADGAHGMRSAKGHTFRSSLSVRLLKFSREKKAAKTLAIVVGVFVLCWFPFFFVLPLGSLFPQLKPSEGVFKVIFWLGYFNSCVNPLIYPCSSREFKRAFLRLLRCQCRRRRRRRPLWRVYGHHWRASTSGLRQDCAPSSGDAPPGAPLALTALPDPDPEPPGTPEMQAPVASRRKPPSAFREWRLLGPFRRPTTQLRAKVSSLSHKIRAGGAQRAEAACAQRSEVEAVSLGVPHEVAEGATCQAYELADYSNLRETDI
test-protocol: Equilibrium competition binding, [3H] prazosin, membranes of transfected LM(tk-) cells
pKi: −log10 of the molar value.
Label not fulfilled if pKi falls below 6; label fulfilled in every other case.

For orientation, consider the following solved cases.
CC(C)c1nc2ccc(NC3=NCCN3)c(Br)c2[nH]1
not fulfilled
Cn1cnc2c(Br)c(NC3=NCCN3)ccc21
fulfilled
c1nc2ccc(NC3=NCCN3)cc2[nH]1
not fulfilled

Next compound, please.
**Query** Test whether the compound `Cn1cnc2cc(NC3=NCCN3)ccc21` records pKi of 6 or higher.
**Result** not fulfilled
